The reader will find reported pIC50 values listed item by item below.
# Target Entity: recombinant human ACC1 (rhACC1) (Homo sapiens (Human), UniProt Q13085)
# Assay Protocol: Transcreener ADP detection FP assay, direct inhibition of rhACC1
# Measurement Context: Geomean IC50, n ≥ 2 unless * then n = 1; 50 μM ATP, 30 μM acetyl-CoA
For clarity, pIC50 is expressed as the negative log10 of concentration in mol/L.

In the examples that follow, each entry is paired with its recorded pIC50.
{"Smiles": "COc1ccc2ccc(C(=O)N3CCC4(CC3)CC(=O)c3nc(C(C)(C)C)sc3C4)cc2c1", "Target Entity": "recombinant human ACC1 (rhACC1) (Homo sapiens (Human), UniProt Q13085)", "pIC50": 8.15}
{"Smiles": "CNc1nc2ccccc2cc1C(=O)N1CCC2(CC1)CC(=O)c1nc(C(C)(C)C)sc1C2", "Target Entity": "recombinant human ACC1 (rhACC1) (Homo sapiens (Human), UniProt Q13085)", "pIC50": 6.72}
{"Smiles": "COc1cccc2ncc(C(=O)N3CCC4(CC3)CC(=O)c3nc(C(C)(C)C)sc3C4)cc12", "Target Entity": "recombinant human ACC1 (rhACC1) (Homo sapiens (Human), UniProt Q13085)", "pIC50": 6.94}
{"Smiles": "Cc1c[nH]c2ccc(C(=O)N3CCC4(CC3)CC(=O)c3nc(C(C)(C)C)sc3C4)cc12", "Target Entity": "recombinant human ACC1 (rhACC1) (Homo sapiens (Human), UniProt Q13085)", "pIC50": 7.93}

Ask: Please look up its pIC50: `[2H]C([2H])([2H])C(c1nc2c(s1)CC1(CCN(C(=O)c3cc(OC)c4c(c3)c(C)nn4C)CC1)CC2=O)(C([2H])([2H])[2H])C([2H])([2H])[2H]`
Result: 8.28

Ask: Please look up its pIC50: `CC(C)(C)c1nc2c(s1)CC1(CCN(C(=O)c3ccc4ccccc4c3O)CC1)CC2=O`
Result: 7.71

Ask: Please look up its pIC50: `Cn1ccc2c(Cl)cc(C(=O)N3CCC4(CC3)CC(=O)c3nc(C(C)(C)C)sc3C4)cc21`
Result: 8.39
